Where do these numbers come from? They come from patent US12590062B2.

- target-or-system: PD-1/PD-L1 interaction (Homo sapiens)
- Construct: expressed in transfected cells; host or cells: CHO cells (aAPC-PD-L1) co-cultured with Jurkat cells overexpressing PD-1 and an NFAT-luciferase reporter
- Sequence (Q9NZQ7 19-290): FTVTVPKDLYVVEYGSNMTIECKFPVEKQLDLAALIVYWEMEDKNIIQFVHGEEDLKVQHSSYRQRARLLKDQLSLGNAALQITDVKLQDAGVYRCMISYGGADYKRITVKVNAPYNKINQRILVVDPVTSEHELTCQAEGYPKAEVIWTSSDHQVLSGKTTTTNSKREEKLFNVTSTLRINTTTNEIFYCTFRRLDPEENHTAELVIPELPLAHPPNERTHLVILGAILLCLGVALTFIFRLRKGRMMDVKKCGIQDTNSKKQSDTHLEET
- assay-remarks: PD-1/PD-L1 NFAT reporter co-culture assay
- Assay type: cell-based
- recorded-conditions: Jurkat PD-1 NFAT-luciferase cells co-cultured with aAPC-PD-L1 CHO cells, 6 hrs at 37° C.; read-out: EC50 NFAT Luciferase
pEC50: −log10 of the molar value.
measure-name: pEC50

[[record]]
compound = "COc1nc(-c2cccc(-c3cccc4c3CC[C@@H]4Oc3nc(OCc4cncc(C#N)c4)c(CN[C@@](C)(CO)C(=O)O)cc3Cl)c2C)ccc1C1=NCCN1 [Example 749]"
measure_name = "pEC50"
measured_value = 7.11

[[record]]
compound = "Cc1c(COc2cc(OCc3cncc(C#N)c3)c(CN[C@@](C)(CO)C(=O)O)cc2Cl)cccc1-c1cccc(-c2ccc(OCCN3CCC4(CC3)CNC(=O)C4)cc2)c1C [Example 521]"
measure_name = "pEC50"
measured_value = 6.97


I: COc1nc(O[C@H]2CCc3c(-c4cccc(-c5ccc(CNC[C@@H]6CCC(=O)N6)c(OCC#N)c5)c4Cl)cccc32)c(Cl)cc1CNC[C@@H](O)CC(=O)O [Example 654]
II: Cc1c(COc2cc(OCc3cncc(C#N)c3)c(CN3CC[C@@H]3CO)cc2Br)cccc1-c1cccc(COc2cc(OCc3cncc(C#N)c3)c(CN3CC[C@@H]3CO)cc2Br)c1C [Example 258]
III: COc1nc(O[C@H]2CCc3c(-c4cccc(-c5ccc(CNC[C@@H]6CCC(=O)N6)cc5)c4Cl)cccc32)c(Cl)cc1CN1CC(C(=O)O)C1 [Example 721]
*Q* Thanks in advance: please rank these 3 entries by pEC50, highest to lowest. Reply: labels, ordered per the request.
*A* III, I, II
(III: 7.85, I: 7.57, II: 6.38)
